Hey, just so you know, these numbers are from PubChem BioAssay.

# Test method notes: FRG1 promoter luciferase signal modulators, primary screen, FRG1 inhibition for FSHD, cell-based, C2C12 myotubes, firefly/Renilla luciferase, luminescence (AID 1084)
# Study conditions: higher = more signal, called active from +8 up or from −8 down
Quantity name: z-score
One number for each entry.

Compound	Recorded result
C[C@H](ON=C1[C@H]2CCn3c(=O)n(-c4ccccc4)c(=O)n3[C@H]2[C@H](O)[C@@H]2O[C@H]12)c1cn([C@H](CO)Cc2ccccc2)nn1	0.68
C=CC[C@@H]1C=C[C@H](ON=C(C)CCC(=O)OC[C@H]2O[C@H](C#Cc3ccccc3)C=C[C@@H]2Oc2ccc(C)cc2)[C@@H](CO)O1	-0.349
COCCNC(=O)OCC1CCCC2(CC(OC(=O)NCc3ccc4c(c3)OCO4)CC(CCC(=O)N[C@@H](C)C(=O)OC)O2)O1 (stereo not given in full)	0.502
O=C1C[C@@H](O)[C@@H](O)[C@@H]2[C@@H]3C(=O)N(Cc4ccccc4)C(=O)[C@@H]3CC[C@@H]12	0.554
CO[C@@H]1COC(=O)[C@@H](C)COC(=O)[C@@H](C)NC(=O)CC=C[C@@H]1C	0.156

Dear colleague, could you send me z-score for each of the items below? Thanks.
1. Cn1c(=O)n2n(c1=O)[C@H]1[C@H](O)[C@@H]3O[C@@H]3C(=NOCc3ccccc3)[C@H]1CC2
2. CC(CCC(=O)OC[C@H]1O[C@H](C#Cc2ccccc2)C=C[C@@H]1Oc1ccc(C)cc1)=NO[C@H](C)c1cn([C@H](CO)Cc2ccccc2)nn1
3. CO[C@H](C1CCCCC1)[C@H](C)C=CCC(=O)OCCCc1ccccc1
4. COc1ccc(O[C@H]2C=C[C@@H](c3ccccc3)O[C@@H]2COC(=O)CCC(C)=NOC(C)CN2CCCc3nc(C)c(C)cc32)cc1 (stereo not given in full)
5. CC(C)=CCCC(C)=CCON=C1C[C@@H](O)[C@@H](O)[C@@H]2[C@@H]3C(=O)N(c4cccc(Oc5ccccc5)c4)C(=O)[C@@H]3CC[C@@H]12
6. CCOC(=O)NN=C1C[C@@H](O)[C@@H](O)[C@@H]2[C@@H]3C(=O)N(C(C)(C)C)C(=O)[C@@H]3CC[C@H]12
7. COc1ccc(O[C@H]2C=C[C@@H](c3ccccc3)O[C@@H]2CON=CC[C@@H]2C=C[C@H](OC(C)=O)[C@@H](COC(C)=O)O2)cc1

Response:
1: -0.928; 2: 0.546; 3: 0.567; 4: -0.863; 5: 0.508; 6: -0.848; 7: 1.01

Dear colleague, could you send me z-score for each of the items below? Thanks.
1. CCOC(=O)[C@H](CC(C)C)NC(=O)CCC1CC(OC(=O)NCc2ccc3c(c2)OCO3)CC2(CCCC(COC(=O)NCC(c3ccccc3)c3ccccc3)O2)O1 (stereo not given in full)
2. COC(=O)[C@H](C)NC(=O)CCC1CC(OC(=O)NCc2ccc3c(c2)OCO3)CC2(CCCC(COC(=O)NCc3cccc(C(F)(F)F)c3)O2)O1 (stereo not given in full)
3. O=C(C=Cc1ccc2c(c1)OCO2)c1ccc(F)cc1
4. CC(C)=CCCC(C)=CCON=C1C[C@@H](O)[C@@H](O)[C@@H]2[C@@H]3C(=O)N(C[C@@H]4CCCO4)C(=O)[C@@H]3CC[C@H]12
5. COc1cccc([C@H]2Oc3ccc(OC)cc3C(=NOC[C@@H](O)COCc3ccco3)[C@@H]2O)c1
6. CON=Cc1ccc(C(=O)N2[C@H](c3ccc(C)cc3)[C@@H](C)CC[C@H]2C(=O)OC)cc1

Response:
[2.69, -0.15, 0.964, -0.0588, -0.765, 0.0346]

Dear colleague, could you send me z-score for each of the items below? Thanks.
1. CO[C@H]1COC(=O)CC=C[C@@H](C)[C@H](NS(=O)(=O)c2ccc(C)cc2)COC(=O)CCC[C@@H]1C
2. CCOC(=O)[C@H](CC(C)C)NC(=O)CCC1CC(OC(=O)NCc2cccc3ccccc23)CC2(CCCC(COC(=O)NCc3cccc(C(F)(F)F)c3)O2)O1 (stereo not given in full)
3. O=c1n(Cc2cc3c(cc2Cl)OCO3)c(=O)n2n1CC[C@@H]1C(=NOCc3ccccc3)[C@H]3O[C@H]3[C@@H](O)[C@@H]12
4. O=C(NN=C1C[C@@H](O)[C@@H](O)[C@@H]2[C@@H]3C(=O)N(C[C@@H]4CCCO4)C(=O)[C@@H]3CC[C@H]12)OCc1ccccc1
5. CO[C@H]1COC(=O)CC=C[C@H](C)[C@@H](OC)COC(=O)[C@H](C)COC(=O)CC=C[C@@H]1C
6. CCOC(=O)C1=NO[C@]2(C=C(Br)C3(OCCCO3)[C@H]3O[C@H]32)C1
7. O=C1CCCC(C2=CCCCC2=O)C1 (stereo not given)

Response:
0.408
-1.03
-0.611
-0.361
-0.387
0.293
0.222

Dear colleague, could you send me z-score for each of the items below? Thanks.
1. COC(=O)[C@@H]1CC[C@@H](C)[C@H](c2ccc(Br)cc2)N1
2. CCOC(=O)[C@H](CC(C)C)NC(=O)CCC1CC(OC(=O)NCCc2ccc(F)cc2)CC2(CCCC(COC(=O)NCC(c3ccccc3)c3ccccc3)O2)O1 (stereo not given in full)
3. CCN1C(=O)[C@H]2[C@H]3[C@H](O)[C@H](O)CC(=NOCC(C)C)[C@@H]3CC[C@H]2C1=O

Response:
-1.02
2.36
0.0163

Dear colleague, could you send me z-score for each of the items below? Thanks.
1. CCN1C(=O)[C@H]2[C@H]3[C@H](O)[C@H](O)CC(=NO[C@@H](C)c4cn([C@H](CO)Cc5ccccc5)nn4)[C@@H]3CC[C@H]2C1=O
2. CC[C@@H](c1ccccc1)n1c(=O)n2n(c1=O)[C@H]1[C@H](O)[C@@H]3O[C@@H]3C(=NOC[C@@H](O)COCc3ccco3)[C@H]1CC2

Response:
1: 0.345; 2: 0.0269
